# ASSAY_SYSTEM: alpha-glucosidase (Saccharomyces cerevisiae)
# EXPERIMENT_SUMMARY: Inhibition of Saccharomyces cerevisiae alpha-glucosidase assessed as release of p-nitrophenol using pNPG as substrate preincubated for 15 mins followed by substrate addition and measured after 15 mins by plate reader analysis
PROPERTY_MEASURED: IC50 (µg/mL)

COc1c(O)cc2oc3ccc(O)cc3c(=O)c2c1O; 7.6
COc1cc(O)c2c(=O)c3cc(O)ccc3oc2c1OC; 13
COc1cc(OC)c2c(=O)c3c(O)c(OC)ccc3oc2c1O; 59
COc1ccc2oc3ccc(O)cc3c(=O)c2c1; 77

(a) O=c1c2cc(O)ccc2oc2cc(O)cc(O)c12 [1,3,7-trihydroxy-9H-xanthen-9-one]
(b) COc1c(O)cc2oc3ccc(O)c(OC)c3c(=O)c2c1O
(c) COc1ccc(O)c2c(=O)c3cc(O)ccc3oc12
(d) COc1c(O)cc(O)c2c(=O)c3cc(O)ccc3oc12
Problem: Ascending by IC50, please: list the compounds accordingly. Form entry: ranked labels (order as requested).
Solution: a, d, c, b
(a: 3.2 µg/mL, d: 13 µg/mL, c: 28 µg/mL, b: 63 µg/mL)
